These entries and their values trace back to patent US20260234165A1.

Tested on: p-ERK in AsPC-1 cells (KRAS G12D mutation)
experiment: Cell p-ERK assay (HTRF) in AsPC-1 cells
Type: cell-based, human
conditionInfo: Homo sapiens, ASPC1, 3 h, AsPC-1 cells, 3 h compound incubation, HTRF p-ERK T202/Y204; read-out: AsPC-1 p-ERK IC50
experimentalReadout: IC50 (nM)
Answers are plain numbers, in nM.

Recorded results for 3 molecules are shown here.
{"molecule": "CCn1c(-c2cc(N3CCN4CC5(CC5)OC[C@@H]4C3)cnc2[C@H](C)OC)c2c3cc(ccc31)-c1csc(n1)C[C@H](NC(=O)[C@H]1[C@H](C)[C@@H]1C)C(=O)N1CCC[C@H](N1)C(=O)OCC1(CC1)C2 (atropisomer, axis not shown; (Ra)) [Compound Z13]", "IC50 (nM)": 2.24}
{"molecule": "CCn1c(-c2cc(C#CCN3CCCS(=O)(=O)CC3)cnc2[C@H](C)OC)c2c3cc(ccc31)-c1csc(n1)C[C@H](Nc1nnc3cc(C)ccn13)C(=O)N1CCC[C@H](N1)C(=O)OCC(C)(C)C2 (atropisomer, axis not shown; (Ra)) [Compound Z979]", "IC50 (nM)": 2.47}
{"molecule": "CCn1c(-c2cc([C@@H]3CCN4CCOC[C@H]4C3)cnc2[C@H](C)OC)c2c3cc(ccc31)-c1csc(n1)C[C@H](NC(=O)[C@H]1[C@H](C)[C@@H]1C)C(=O)N1CCC[C@H](N1)C(=O)OCC1(CC1)C2 (single isomer, unassigned) [Compound Z80]", "IC50 (nM)": 25.3}

Query: IC50; subject: CCn1c(-c2cc(C#CCN3CCCOCC3)c[n+]([O-])c2C(C)C)c2c3cc(ccc31)-c1csc(n1)C[C@H](NC(=O)[C@H]1[C@H](C)[C@@H]1C)C(=O)N1CCC[C@H](N1)C(=O)OCC(C)(C)C2 (atropisomer, axis not shown; (Ra)) [Compound Z950]
0.27

* * *

Assignment: determine reported CL for the given molecules.
experiment: Pharmacokinetic study in rats
Type: in vivo, Sprague-Dawley (SD) rats
conditionInfo: male SD rats, IV, dose 1 mg/kg
One number for each entry, in mL/min/kg.

Recorded results for 4 molecules are shown here.
{"molecule": "CCn1c(-c2cc(C#CCN3CCCOCC3)cnc2C(C)C)c2c3cc(ccc31)-c1csc(n1)C[C@H](NC(=O)[C@H]1[C@H](C)[C@@H]1C)C(=O)N1CCC[C@H](N1)C(=O)OCC(C)(C)C2 (atropisomer, axis not shown; (Sa))", "CL, mL/min/kg": 1.14}
{"molecule": "CO[C@@H](C)c1ncc(C#CCN2CCCOCC2)cc1-c1c2c3cc(ccc3n1CC(F)(F)F)-c1csc(n1)C[C@H](NC(=O)[C@H]1[C@H](C)[C@@H]1C)C(=O)N1CCC[C@H](N1)C(=O)OCC(C)(C)C2 (atropisomer, axis not shown; (Ra))", "CL, mL/min/kg": 7.66}
{"molecule": "CCn1c(-c2cc(C#CCN3C4CCC3COC4)cnc2[C@H](C)OC)c2c3cc(ccc31)-c1csc(n1)C[C@H](NC(=O)[C@H]1[C@H](C)[C@@H]1C)C(=O)N1CCC[C@H](N1)C(=O)OCC(C)(C)C2 (atropisomer, axis not shown; (Ra))", "CL, mL/min/kg": 3.82}
{"molecule": "CCn1c(-c2cc(C#CCN3CCOC[C@H]3C)cnc2[C@H](C)OC)c2c3cc(ccc31)-c1csc(n1)C[C@H](NC(=O)[C@H]1[C@H](C)[C@@H]1C)C(=O)N1CCCC(N1)C(=O)OCC(C)(C)C2 (atropisomer, axis not shown; (Ra))", "CL, mL/min/kg": 14.9}

Consider now this further molecule.
Query: CL; subject: CCn1c(-c2cc(C#CCN(C)CCOC)cnc2[C@H](C)OC)c2c3cc(ccc31)-c1csc(n1)C[C@H](NC(=O)[C@H]1[C@H](C)[C@@H]1C)C(=O)N1CCC[C@H](N1)C(=O)OCC(C)(C)C2 (atropisomer, axis not shown; (Ra))
3.58
